Test: folding enthalpy; higher = less favourable; fluorescence melt of hairpins on a sequencing array, two-state fit
Details: sodium 0.088 M
Classification field: yes (1) = folding enthalpy at or over -30 kcal/mol; no (0) = folding enthalpy under -30 kcal/mol.

Please review the entries below; each comes with its answer.
ITEM_SEQUENCE | GROUP
GCCTGGAAACAGGC (((((....))))) | yes (1)
GTGTGTGGAAACACATAC ((.((((....)))).)) | yes (1)
GATGCGGAAACGCATC ((((((....)))))) | no (0)
GGGTATGGAAACGTACCC (((((.(....).))))) | no (0)
GCGCTTCGAAAGAACCGC (((.(((....))).))) | no (0)
GCGAAGGGTCGC ((((....)))) | yes (1)

In: Exam item: decide whether the reported folding enthalpy for GGTAGTCCGAAAGGAACC (((..(((....)))))) is at least -30 kcal/mol.
Out: yes (1)

----------
Test: melting temperature; fluorescence melt of hairpins on a sequencing array, two-state fit, raised by 9.35 °C to match UV melts
Details: sodium 0.088 M
METRIC_NAME: Tm (°C)
The response must be a number in °C with no trailing unit.

// known answers, use as guide
ITEM_SEQUENCE | Tm, °C
GGTGTAGGAAACTACGCC ((.((((....)))).)) | 52.3
CGCGGAAGGCTCCGCG ((((((....)))))) | 68.7
GATCTTCAAAAAGATC ((((((....)))))) | 40.4
GCTGCGCCGAAAGGCAGC (((..(((....)))))) | 61.1
GCCTCGCGAAAGCTAAGC ((.(.((....)).).)) | 25.6
GTCTTCGAAAGAAGGAC ((((((....))).))) | 41.6

Now look at this one.
In: State the recorded Tm for this entry: GATCCCAACTGGGATC ((((((....))))))
Out: 63.4

----------
Test: melting temperature; fluorescence melt of hairpins on a sequencing array, two-state fit, raised by 9.35 °C to match UV melts
Conditions: sodium 0.088 M
Decide by Tm: equal to or exceeding 50 °C means True, less means False.

Past entries and their recorded results:
ITEM_SEQUENCE | GROUP
GCGACGGGAAACTGTCGC (((((.(....).))))) | True
GGTTTCGAAAGAAGGACC ((((((....)))..))) | False

In: Confirm if Tm reported for the sequence GCCATTCGAAAGAAGGC (((.(((....)))))) is 50 °C or above.
Out: False

In: State whether the measured Tm reaches 50 °C, counting equality as reaching it, for GTGATTGGAAACAGTCAC ((((.((....)).))))
Out: False

In: Tm >= 50 °C for GTCATAGGAAACTACGAC (((.(((....))).))) ?
Out: False

----------
Below is a list of entries, each paired with its recorded folding enthalpy value.
Assay: folding enthalpy; higher = less favourable; fluorescence melt of hairpins on a sequencing array, two-state fit
Settings: sodium 0.088 M

A selection of reference data follows.
ITEM_SEQUENCE | METRIC_NAME | DATA_VALUE
GCTCCGGGAAACTGGGGC ((.((.(....).)).)) | folding enthalpy | -33.9 kcal/mol
GTGTTCGAAAGAAAGCAC ((((((....)))..))) | folding enthalpy | -12.8 kcal/mol
GCTACGCGAAAGCGGTGC ((..(((....)))..)) | folding enthalpy | -16 kcal/mol
GGACTTGGAAACAAATCC (((.(((....))).))) | folding enthalpy | -12.4 kcal/mol
GATCACCCTGGTGATC ((((((....)))))) | folding enthalpy | -41.1 kcal/mol

In: Look at this sequence and give its reported folding enthalpy. GTGAAACGAAAGTTGCAC (((.(((....))).)))
Out: -31.2 kcal/mol

In: Look up folding enthalpy for this sequence: GACCTGGGAAACCAGGCC (.(((((....))))).)
Out: -12.7 kcal/mol

In: Endpoint output: folding enthalpy of GGCTTAGAAATAAGCC ((((((....)))))) . Value?
Out: -33.4 kcal/mol

----------
Experiment: melting temperature; fluorescence melt of hairpins on a sequencing array, two-state fit, raised by 9.35 °C to match UV melts
Settings: sodium 0.088 M
METRIC_NAME: Tm (°C)
Return type: number; implicit unit °C.

ITEM_SEQUENCE | DATA_VALUE
CGGACGGAAACGTACCG ((((((....))).))) | 47.5
GGGTTCGAAAGAACGCCC ((((((....)))..))) | 50

In: So what's the measured Tm for this one? GTAGGTCGAAAGACTAC (((.(((....))))))
Out: 43.3

In: GET /values?readout=Tm&item= GTATTGGAAACAATAC ((((((....))))))
Out: 46.5

In: # lookup: Tm of GCGGACGAAAGTCTACGC ((((((....)))..)))
Out: 52.2

In: Data request, read-out Tm, for GTTTGAGGAAACTCAAGC (.(((((....))))).)
Out: 40.5

----------
Experiment: folding enthalpy; higher = less favourable; fluorescence melt of hairpins on a sequencing array, two-state fit
Details: sodium 0.088 M
Each record's folding enthalpy is compared with one (below -30 kcal/mol), two (-30 kcal/mol to below -10 kcal/mol), three (-10 kcal/mol or more) to give its class.

ITEM_SEQUENCE | GROUP
GAGCCGGGAAACCGGCCC (.(((((....))))).) | three
GCTTTGAAAAAAGC (((((....))))) | two
GATCGTCTAAACGATC ((((((....)))))) | one
GTAGCCCGAAAGGGTTAC (((.(((....))).))) | two
GGCAGCGAAAGCTATGCC ((((((....)))..))) | two
GAGCCACGAAAGTGTCTC (((.(((....))).))) | two

In: Hey, which category is GATCACGGTGGTGATC ((((((....)))))) in, do you know?
Out: one

In: Would you mind sorting GCCTTTGGAAACAAAAGC ((.((((....)))).)) into the appropriate category?
Out: two

In: Could you tell me which band GTATTCGAAAGAAGTAC ((((((....))).))) belongs to?
Out: three

In: Using the reported folding enthalpy, which band applies to GCTTGGCGAAAGCCTCGC ((..(((....)))..)) ?
Out: two

In: Note: place this sequence into its band. Item: GTGACCTCGAAAGAGCAC (((..(((....))))))
Out: two

----------
Experiment: folding enthalpy; higher = less favourable; fluorescence melt of hairpins on a sequencing array, two-state fit
Settings: sodium 0.088 M
METRIC_NAME: folding enthalpy (kcal/mol)
Numeric only. Scale: kcal/mol

ITEM_SEQUENCE | SCALE_UNIT | DATA_VALUE
GATCTCGCCTGAGATC ((((((....)))))) | kcal/mol | -36.8
GCCTCAGGAAACTGAAGC ((.((((....)))).)) | kcal/mol | -24.9
GATCTACGTCTAGATC ((((((....)))))) | kcal/mol | -20.7

In: Form field: reported folding enthalpy of GTAACGCGAAAGCGTAC (((.(((....))))))
Out: -10.6

In: Which folding enthalpy value is on record for GCAGTCGAAAGACCCTGC ((((((....)))..))) ?
Out: -17.3

In: Using the record for GGGTAAGGAAACTCACCC ((((.((....)).)))) , report its folding enthalpy.
Out: -28.4

In: Param item = CGCATACGGAAACGTGCG (((..(((....)))))) ; retrieve measured folding enthalpy.
Out: -30.2

In: Value lookup for folding enthalpy; key = CGCAACGGAAACGTGGCG (((.(((....))).)))
Out: -46.5

In: Sample GCGAGAGAAATCTCGC ((((((....)))))) — what was its folding enthalpy?
Out: -32.3

In: What does the data say about its folding enthalpy? Entry: GAGTGACGAAAGTCCCTC (((.(((....))).)))
Out: -24.4

In: // returns reported folding enthalpy for input GATCGGTGCGCCGATC ((((((....))))))
Out: -36.9

In: GET /values?readout=folding enthalpy&item= GATCCTTCGGAGGATC ((((((....))))))
Out: -38.2

----------
Assay: folding enthalpy; higher = less favourable; fluorescence melt of hairpins on a sequencing array, two-state fit
Details: sodium 0.088 M
Overview of reported folding enthalpy across a group of sequences:
Field: numeric (kcal/mol). Do not append units.

Worked set:
ITEM_SEQUENCE | folding enthalpy (kcal/mol)
CGGATCCGGAAACGGCCG (((..(((....)))))) | -20.6
GCTAAGCGAAAGCACAGC (((..((....))..))) | -21.7
GAGCTTGGAAACAAGCTC (((((((....))))))) | -35.1

In: # get_value(readout='folding enthalpy', item= GCGTTAGGAAACTGACGC ((((.((....)).)))) )
Out: -42.5

In: Which measured folding enthalpy value corresponds to GATAGCCGAAAGGCGATC (((.(((....))).))) ?
Out: -17.9

In: Need folding enthalpy of CGTGCGGAAACGCTGACG ((((((....)))..))) , thanks.
Out: -21.2

In: I am curious: what folding enthalpy value has been reported for GTGCTTGCGAAAGCACAC (((..(((....)))))) ?
Out: -13.1

In: Could you share which folding enthalpy value was measured for GGGTTCGAAAGAAAGCCC ((((((....)))..))) ?
Out: -16

In: Any idea what its folding enthalpy is? The sequence is GCATAACCGAAAGGTTGC (((..(((....))))))
Out: -15.4

In: What folding enthalpy value was documented for this sequence, GCGTGACCACGC ((((....)))) ?
Out: -21.2

In: # query: folding enthalpy of entry GATCCTAGAGAGGATC ((((((....))))))
Out: -35.4

In: // folding enthalpy lookup, key: GTCGTGACGAAAGTCGAC (((..(((....))))))
Out: -16.6
